These measurements were taken from patent US20080221116A1.

Entries and their pKi values follow.
- Target system: α1d-AR (Homo sapiens, UniProt P25100)
- Construct: expressed in transfected cells; host or cells: COS-7 cells (African Green monkey kidney), membranes
- Sequence (P25100 whole entry): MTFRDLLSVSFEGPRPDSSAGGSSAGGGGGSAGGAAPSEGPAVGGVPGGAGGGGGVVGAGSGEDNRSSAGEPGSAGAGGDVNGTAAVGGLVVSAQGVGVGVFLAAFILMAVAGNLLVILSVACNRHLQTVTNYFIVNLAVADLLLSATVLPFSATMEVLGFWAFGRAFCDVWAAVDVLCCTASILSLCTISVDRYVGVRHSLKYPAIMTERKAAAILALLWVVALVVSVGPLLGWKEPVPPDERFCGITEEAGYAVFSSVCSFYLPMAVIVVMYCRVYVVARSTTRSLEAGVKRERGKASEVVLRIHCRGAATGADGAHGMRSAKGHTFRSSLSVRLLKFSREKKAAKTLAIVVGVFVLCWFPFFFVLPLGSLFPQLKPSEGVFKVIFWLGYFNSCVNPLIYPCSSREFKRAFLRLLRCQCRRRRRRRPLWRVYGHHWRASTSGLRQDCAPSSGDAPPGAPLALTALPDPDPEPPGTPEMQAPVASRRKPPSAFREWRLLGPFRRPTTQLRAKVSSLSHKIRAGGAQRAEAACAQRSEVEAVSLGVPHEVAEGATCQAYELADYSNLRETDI
- Experimental protocol: α1-Adrenergic Receptor Binding Assay, 125I-HEAT radio-ligand binding, transfected COS-7 cell membranes, α1d subtype
- Test context: average value, COS-7 membranes, read-out: Alpha 1 Ki α1d (1) Average Value
// pKi here means minus log10 of the molar concentration (mol/L)

**Query** Given the compound CC(C)Oc1ccccc1N1CCN(CC2CC(C(=O)N3CC(C)(C)c4cc(Br)ccc43)=NO2)CC1 (single isomer, unassigned) [Compound 43] , write its reported pKi.
**Result** 6.99

**Query** Given the compound CC(C)Oc1ccccc1N1CCN(CC2CC(C(=O)N3CCc4ccc(N)cc43)=NO2)CC1 (stereo not shown) , write its reported pKi.
**Result** 8.55

**Query** Given the compound COc1cc2c(cc1OC)N(C(=O)C1=NOC(CN3CCN(c4ccccc4OC(C)C)CC3)C1)CC2 (stereo not shown) , write its reported pKi.
**Result** 8.18

**Query** Given the compound CC(C)Oc1ccccc1N1CCN(CC2CC(C(=O)N3CCCC3)=NO2)CC1 (stereo not shown) , write its reported pKi.
**Result** 8.05

**Query** Given the compound CC(C)Oc1ccccc1N1CCN(CC2CC(C(=O)N3CC(C)(C)c4cc(Br)ccc43)=NO2)CC1 (stereo not shown) [Compound 19] , write its reported pKi.
**Result** 9.22

**Query** Given the compound CC(C)Oc1ccccc1N1CCN(CC2CC(C(=O)N3CCC(C(=O)c4ccc(F)cc4)CC3)=NO2)CC1 (single isomer, unassigned) [Compound 40] , write its reported pKi.
**Result** 8.34

**Query** Given the compound COc1ccccc1C1CCN(C(=O)C2=NOC(CN3CCN(c4ccccc4OC(C)C)CC3)C2)CC1 (stereo not shown) , write its reported pKi.
**Result** 7.70

**Query** Given the compound CC(=O)N1CCc2cc(NC(=O)C3=NOC(CN4CCN(c5ccccc5OC(C)C)CC4)C3)ccc21 (stereo not shown) , write its reported pKi.
**Result** 8.74

**Query** Given the compound CC(C)Oc1ccccc1N1CCN(CC2CC(CN3CCCCC3=O)=NO2)CC1 (stereo not shown) [Compound 1] , write its reported pKi.
**Result** 8.07

**Query** Given the compound CC(C)Oc1ccccc1N1CCN(CC2CC(CN3CCCCC3=O)=NO2)CC1 (single isomer, unassigned) [Compound 3] , write its reported pKi.
**Result** 7.70
